# Assay Info: in vivo
# Details: male, C57Bl/6 J, mouse, brain/plasma, ip, 10 mg/kg
Observable: Kp

Task: Quote Kp reported for Cn1cc(-c2ccc(COc3ccccc3-c3cc(=O)n(C4CCCCC4O)cn3)cc2)cn1 (stereo not shown) [Compound 2] please.
Result: < 0.1

----------
# Experimental System: hM1 mAChR (Homo sapiens)
# Construct: expressed in transfected cells
# Sequence (P11229 1-460): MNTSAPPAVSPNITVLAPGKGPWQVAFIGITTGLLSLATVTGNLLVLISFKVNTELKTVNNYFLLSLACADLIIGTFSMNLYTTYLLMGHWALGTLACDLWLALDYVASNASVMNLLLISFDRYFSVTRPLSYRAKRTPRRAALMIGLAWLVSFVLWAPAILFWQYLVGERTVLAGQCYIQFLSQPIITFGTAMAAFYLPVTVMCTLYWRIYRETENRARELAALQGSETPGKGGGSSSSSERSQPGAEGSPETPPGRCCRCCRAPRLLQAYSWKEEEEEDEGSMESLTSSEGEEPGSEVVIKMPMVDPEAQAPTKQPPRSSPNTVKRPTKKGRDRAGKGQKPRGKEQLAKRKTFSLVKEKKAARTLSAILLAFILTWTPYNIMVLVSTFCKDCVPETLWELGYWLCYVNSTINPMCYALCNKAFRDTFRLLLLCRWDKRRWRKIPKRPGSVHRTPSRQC
# Assay Info: IP1 accumulation assay (ACh concentration-response curves in absence or presence of modulator)
# Type: cell-based
# Details: IP1 accumulation; operational model
Observable: log τB (logarithm of intrinsic efficacy of the modulator)
In your answer, state the number alone without any accompanying words.

Task: Quote log τB (logarithm of intrinsic efficacy of the modulator) reported for Cn1cc(-c2ccc(COc3ccccc3-c3cc(=O)n(C4CCCCC4O)cn3)cc2)cn1 (stereo not shown) please.
Result: 0.78

Task: Quote log τB (logarithm of intrinsic efficacy of the modulator) reported for O=c1cc(-c2ccccc2OCc2ccc(-n3cccn3)nc2)ncn1C1CCCCC1O (stereo not shown) [Compound 27b] please.
Result: 0.54

Task: Quote log τB (logarithm of intrinsic efficacy of the modulator) reported for Cn1cc(-c2ccc(COc3ccsc3-c3ccn(C4CCCCC4O)c(=O)c3)cc2)cn1 (stereo not shown) please.
Result: 0.78

Task: Quote log τB (logarithm of intrinsic efficacy of the modulator) reported for CN(C)C(=O)Cn1ccc(-c2ccccc2OCc2ccc(-c3cnn(C)c3)cc2)cc1=O [Compound 13c] please.
Result: 0.45

----------
Please provide measured α (binding cooperativity with ACh) for the entries that follow.
# Experimental System: hM1 mAChR (Homo sapiens, UniProt P11229)
# Construct: expressed in transfected cells
# Assay Info: Whole-cell [3H]NMS equilibrium competition radioligand binding
# Details: [3H]NMS binding; antilog, in parentheses
# Procedure: To determine the affinity (pKB) of the allosteric modulators for the allosteric site, and their binding cooperativity with ACh (log αACh) at the M1 mAChR, whole cell equilibrium competition binding studies were performed, using [^3H]NMS to label the orthosteric site. […]
In your answer, state the number alone without any accompanying words.

Task: Quote α (binding cooperativity with ACh) reported for Cn1cc(-c2ccc(COc3ncccc3-c3cc(=O)n(C4CCCCC4O)cn3)cc2)cn1 (stereo not drawn) [Compound 26a] please.
Result: 120

Task: Quote α (binding cooperativity with ACh) reported for Cn1cc(-c2ccc(COc3ccccc3-c3ccn(C4CCCCC4O)c(=O)c3)cc2)cn1 (stereo not drawn) please.
Result: 112

Task: Quote α (binding cooperativity with ACh) reported for Cn1cc(-c2ccc(COc3ncccc3-c3ccn(C4CCCCC4O)c(=O)c3)cc2)cn1 (stereo not drawn) please.
Result: 240

Task: Quote α (binding cooperativity with ACh) reported for COc1ccc(Cn2cc(C(=O)O)c(=O)c3ccccc32)cc1 [BQCA, reference compound] please.
Result: 245

Task: Quote α (binding cooperativity with ACh) reported for O=c1cc(-c2ccccc2OCc2ccc(-n3cccn3)nc2)ncn1C1CCCCC1O (stereo not drawn) [Compound 27b] please.
Result: 151

Task: Quote α (binding cooperativity with ACh) reported for Cn1cc(-c2ccc(COc3ccccc3-c3ccn(C4CCCCC4=O)c(=O)c3)cc2)cn1 (stereo not drawn) [Compound 13d] please.
Result: 52
